Assign protein stability index to each entry below.
B1: MED27 (parent)
chain: YNENVYTEDGKLDIWSKSNYQVFQ

Variants of: B1
TEST_DETAILS: protein stability index of a GFP-peptide fusion (GPS, HEK-293T) (PSI 1-6); higher = more stable;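 also: lentivirally expressed fusions sorted by FACS into six bins by GFP to DsRed ratio, PSI derived from sequencing read proportions per bin multiplied by bin number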
STUDY_CONDITIONS: c terminus: a fixed tail appended
Answers are plain numbers.

Record protein stability index per entry; entries follow.
1. YNENVYTEDGKLNIWSKSNYQVFQ [D13N]
2. YNENVYTMDGKLDIWSKSNYQVFQ [E8M]

1: 1.76; 2: 1.57
